Tested on: Escherichia coli TOP10
ASSAY NOTES: shrunken log2 fold change of peptide-encoding DNA abundance (4.5 h post-induction vs induction); higher = less antimicrobial activity (less host growth inhibition)
ASSAY CONDITIONS: time post-induction: 4.5 h; library: site-saturation at positions 5, 18, 19, 20
MEASUREMENT TYPE: shrunken log2 fold change
Output: the number by itself.

{"columns": ["RESIDUES", "shrunken log2 fold change"],
 "data": [
  ["RRIRWRPPRLPRPRPRPHIEPRP", 0.0376],
  ["RRIRKRPPRLPRPRPRPFCIPRP", 0.0646],
  ["RRIRRRPPRLPRPRPRPSWWPRP", 0.327],
  ["RRIRFRPPRLPRPRPRPFLGPRP", 0.0749],
  ["RRIRYRPPRLPRPRPRPKRPPRP", 0.45]
]}

**Query** So what's the measured shrunken log2 fold change for this one? `RRIRKRPPRLPRPRPRPYESPRP`
**Result** 0.0419

**Query** Next record, please: `RRIRTRPPRLPRPRPRPLFRPRP`
**Result** -0.353

**Query** Next record, please: `RRIRMRPPRLPRPRPRPPHAPRP`
**Result** 1.65

**Query** Next record, please: `RRIRMRPPRLPRPRPRPINLPRP`
**Result** -0.0139

**Query** Next record, please: `RRIRVRPPRLPRPRPRPLFMPRP`
**Result** -0.663

**Query** Next record, please: `RRIRKRPPRLPRPRPRPHGHPRP`
**Result** -0.248

**Query** Next record, please: `RRIRWRPPRLPRPRPRPHQSPRP`
**Result** 0.0383

**Query** Next record, please: `RRIRNRPPRLPRPRPRPSCQPRP`
**Result** -0.185

**Query** Next record, please: `RRIRTRPPRLPRPRPRPVCKPRP`
**Result** -0.0432

###

Test system: Escherichia coli TOP10
ASSAY NOTES: shrunken log2 fold change of peptide-encoding DNA abundance (4.5 h post-induction vs induction); higher = less antimicrobial activity (less host growth inhibition)
ASSAY CONDITIONS: time post-induction: 4.5 h; library: site-saturation at positions 5, 18, 19, 20
Classify as follows. Reported shrunken log2 fold change greater than or equal to -0.06: rule met. Reported shrunken log2 fold change below: rule not met.

Previously resolved entries follow.
{"columns": ["RESIDUES", "QUALITATIVE LABEL"],
 "data": [
  ["RRIRGRPPRLPRPRPRPCHFPRP", "rule met"],
  ["RRIRQRPPRLPRPRPRPPIIPRP", "rule not met"],
  ["RRIRHRPPRLPRPRPRPYWQPRP", "rule not met"]
]}

# input for lookup
**Query** Check if shrunken log2 fold change >= -0.06 (inclusive). Item: `RRIRGRPPRLPRPRPRPFLEPRP`
**Result** rule met

###

Tested on: Escherichia coli TOP10;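 further: peptides expressed intracellularly from a pBAD plasmid library in pooled LB shake-flask culture, induced with 0.3% L-arabinose, DNA abundance read by NGS, three biological replicates, DESeq2 with apeglm shrinkage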
ASSAY NOTES: shrunken log2 fold change of peptide-encoding DNA abundance (4.5 h post-induction vs induction); higher = less antimicrobial activity (less host growth inhibition)
ASSAY CONDITIONS: time post-induction: 4.5 h; library: site-saturation at positions 5, 18, 19, 20
MEASUREMENT TYPE: shrunken log2 fold change
Output: the number by itself.

{"columns": ["RESIDUES", "ASSAY SYSTEM", "shrunken log2 fold change"],
 "data": [
  ["RRIRVRPPRLPRPRPRPWDFPRP", "Escherichia coli TOP10", -0.0763],
  ["RRIRCRPPRLPRPRPRPCHEPRP", "Escherichia coli TOP10", -0.0566],
  ["RRIRTRPPRLPRPRPRPQCRPRP", "Escherichia coli TOP10", -0.259],
  ["RRIRKRPPRLPRPRPRPRTIPRP", "Escherichia coli TOP10", 0.262],
  ["RRIRQRPPRLPRPRPRPIFRPRP", "Escherichia coli TOP10", 0.0716]
]}

**Query** So what's the measured shrunken log2 fold change for this one? `RRIRNRPPRLPRPRPRPGCTPRP`
**Result** 0.0156

**Query** Next record, please: `RRIRDRPPRLPRPRPRPYPEPRP`
**Result** 0.0271

Origin of the recorded values: the supplement of paper PMC9112550
